# target_desc: PARP-2 (Homo sapiens)
# Sequence (Q9UGN5 whole entry): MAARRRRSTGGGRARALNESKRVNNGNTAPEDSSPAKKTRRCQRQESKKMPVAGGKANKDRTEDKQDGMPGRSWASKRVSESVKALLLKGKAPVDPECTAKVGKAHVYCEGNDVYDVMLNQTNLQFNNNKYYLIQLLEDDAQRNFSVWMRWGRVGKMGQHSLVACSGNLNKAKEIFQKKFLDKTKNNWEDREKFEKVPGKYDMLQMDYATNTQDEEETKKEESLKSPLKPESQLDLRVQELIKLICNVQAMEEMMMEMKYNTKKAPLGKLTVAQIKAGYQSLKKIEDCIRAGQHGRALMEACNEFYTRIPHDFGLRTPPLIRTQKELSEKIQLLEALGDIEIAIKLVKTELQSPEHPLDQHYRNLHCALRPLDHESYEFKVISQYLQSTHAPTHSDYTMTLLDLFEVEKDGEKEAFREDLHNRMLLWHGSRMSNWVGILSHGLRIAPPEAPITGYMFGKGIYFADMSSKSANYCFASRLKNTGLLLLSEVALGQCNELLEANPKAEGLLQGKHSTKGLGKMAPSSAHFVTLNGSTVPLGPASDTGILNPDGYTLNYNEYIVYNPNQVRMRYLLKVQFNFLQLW
quantity_measured: pIC50
Just the number, please; pIC50 means minus log10 of the concentration in mol/L.

Record OC1CCN(Cc2cn(-c3ccccc3F)nn2)C2(CCCCC2)c2ccccc21 (stereo not shown) [Compound 11b] / PARP-2 (Homo sapiens), pIC50 recorded as 7.49

----------
Reported melting point values are given for each entry in this list.

Known results for molecules:
>>> value("OC1CCN(Cc2cn(-c3cccc(Cl)c3)nn2)C2(CCCCC2)c2ccccc21 (stereo not shown) [Compound 11i]")
"168.1 to 168.8 °C"
>>> value("OC1CCN(Cc2cn(-c3ccccc3Cl)nn2)C2(CCCCC2)c2ccccc21 (stereo not shown) [Compound 11 h]")
"167.9 to 168.3 °C"
>>> value("Oc1ccc(-n2cc(CN3CCC(O)c4ccccc4C34CCCCC4)nn2)cc1 (stereo not shown) [Compound 11s]")
"171.1 to 172.3 °C"

Moving on to another molecule below.
Entry COc1cccc(-n2cc(CN3CCC(O)c4ccccc4C34CCCCC4)nn2)c1 (stereo not shown) [Compound 11 L] , melting point reported as 172.3 to 174.1 °C

----------
Overview of reported melting point across a group of molecules:

Documented melting point of COc1ccc(-n2cc(CN3CCC(O)c4ccccc4C34CCCCC4)nn2)cc1 (stereo not shown) : 170.2 to 172.3 °C

Please fill in: melting point reported for OC1CCN(Cc2cn(-c3ccc(Cl)cc3)nn2)C2(CCCCC2)c2ccccc21 (stereo not shown) [Compound 11j] = 165.6 to 166.3 °C

Form: molecule = Cc1cccc(-n2cc(CN3CCC(O)c4ccccc4C34CCCCC4)nn2)c1 (stereo not shown) [Compound 11f] ; melting point = 167.3 to 168.2 °C

Entry OC1CCN(Cc2cn(-c3ccccc3Br)nn2)C2(CCCCC2)c2ccccc21 (stereo not shown) [Compound 11n] ; melting point = 168.2 to 169.8 °C
